These entries and their values trace back to patent US10351586B2.

Assay: Body weight / toxicity of a single intraperitoneal injection in HCT-116 colon tumor-bearing nude mice
Settings: Day 25; single IP injection (QD×1); D1 and D2 400 mg/kg, D3 350 mg/kg, D4 300 mg/kg
quantity_measured: Average rate of weight change of the animals (%)
Provide the reading as a plain figure in %.

# example entries with known answers
- compound: "CCCCOC(=O)Nc1ccn([C@H]2O[C@@H](COC(=O)CCC(=O)OC[C@H]3O[C@@H](n4ccc(NC(=O)OCCCC)nc4=O)C(F)(F)[C@@H]3O)[C@H](O)C2(F)F)c(=O)n1 (stereo in doubt) [Compound D2]"
  readout_value: 5.07
- compound: "CCCCOC(=O)Nc1ccn(C2OC(COC(=O)CCC(=O)OC[C@H]3O[C@@H](n4ccc(NC(=O)OCc5ccccc5)nc4=O)C(F)(F)[C@@H]3O)C(O)C2(F)F)c(=O)n1 (stereo in doubt)"
  readout_value: 10.69
- compound: "O=C(CCCC(=O)OC[C@H]1O[C@@H](n2ccc(NC(=O)OCc3ccccc3)nc2=O)C(F)(F)[C@@H]1O)OC[C@H]1O[C@@H](n2ccc(NC(=O)OCc3ccccc3)nc2=O)C(F)(F)[C@@H]1O"
  readout_value: 13.34

In the following, a different compound is considered.
Given the compound CCCCOC(=O)Nc1ccn(C2OC(COC(=O)CCCC(=O)OC[C@H]3O[C@@H](n4ccc(NC(=O)OCCCC)nc4=O)C(F)(F)[C@@H]3OC(=O)OCCCC)C(OC(=O)OCCCC)C2(F)F)c(=O)n1 (stereo in doubt) [Compound D1] , what is its reported Average rate of weight change of the animals?
12.20
